FYI, the data here is from PubChem BioAssay AID2060488.

Tested on: 966289-007-R4-J1-PDC complex spheroid viability;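 also: spheroids exposed to the agents for seven days before readout; percent viability relative to DMSO vehicle control wells taken as 100%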
assay: Anticancer human tumor 966289-007-R4-J1-PDC patient-derived pancreatic adenocarcinoma cell line growth inhibition [GQUAD]
conditions: second compound 0.316 µM; first compound 10 µM; active compounds read low
attribute_measured: viability, T/C (%)
Response body: numeric value in %, unit text excluded.

Consider the following illustrative entries.
CC(C)n1c(=O)n(C)c2cnc3cc(F)c(-c4ccc(OCCCN5CCCCC5)nc4)cc3c21 + Cc1[nH]c2ccc(F)cc2c1-c1nc2c3cccnc3c3ncccc3c2[nH]1 = 85.9
CC1COCCN1c1cc(C2(S(C)(=N)=O)CC2)nc(-c2ccnc3[nH]ccc23)n1 (stereo not given) + CN(C)c1ccc(Nc2c3ccc(NC(=O)CCN4CCCC4)cc3nc3cc(NC(=O)CCN4CCCC4)ccc23)cc1 = 12.8
CC(C)n1c(=O)n(C)c2cnc3cc(F)c(-c4ccc(OCCCN5CCCCC5)nc4)cc3c21 + CN(C)c1ccc(Nc2c3ccc(NC(=O)CCN4CCCC4)cc3nc3cc(NC(=O)CCN4CCCC4)ccc23)cc1 = 86.6
CC(C)(O)C1CCC(Nc2ccc3ncc(-c4cccc(C(F)(F)F)c4)n3n2)CC1 (stereo not given) + Cc1cnc(CNC(=O)c2c(=O)c3ccc(N4CCCN(C)CC4)nc3n3c2sc2ccccc23)cn1 = 2.73
Cc1cccc(N(C)C(=O)C2C(O)CCN2c2nc(C)cc(C(F)(F)F)c2C#N)c1 (stereo not given) + Cc1[nH]c2ccc(F)cc2c1-c1nc2c3cccnc3c3ncccc3c2[nH]1 = 106
CC1COCCN1c1cc(C2(O)CC3CCC(C2)O3)c2cnn(-c3ccn[nH]3)c2n1 (stereo not given) + Cc1cnc(CNC(=O)c2c(=O)c3ccc(N4CCCN(C)CC4)nc3n3c2sc2ccccc23)cn1 = 3.79
CC1COCCN1c1cc(C2(S(C)(=N)=O)CC2)nc(-c2ccnc3[nH]ccc23)n1 (stereo not given) + Cc1[nH]c2ccc(F)cc2c1-c1nc2c3cccnc3c3ncccc3c2[nH]1 = 6.54
CC(C)(O)C1CCC(Nc2ccc3ncc(-c4cccc(C(F)(F)F)c4)n3n2)CC1 (stereo not given) + CN(C)c1ccc(Nc2c3ccc(NC(=O)CCN4CCCC4)cc3nc3cc(NC(=O)CCN4CCCC4)ccc23)cc1 = 53.8
COc1ncnc(C2CC2)c1-c1ncc2cnn(Cc3ccc(-c4nc(C(F)(F)F)cn4C(C)C)cc3)c2n1 + CN(C)c1ccc(Nc2c3ccc(NC(=O)CCN4CCCC4)cc3nc3cc(NC(=O)CCN4CCCC4)ccc23)cc1 = 106
O=C(NO)c1cnc(N2CCN(S(=O)(=O)c3ccc4ccccc4c3)CC2)nc1 + CN(C)c1ccc(Nc2c3ccc(NC(=O)CCN4CCCC4)cc3nc3cc(NC(=O)CCN4CCCC4)ccc23)cc1 = 0.23

The reported value for CCCS(=O)(=O)Nc1ccc(F)c(C(=O)c2c[nH]c3ncc(-c4ccc(Cl)cc4)cc23)c1F + Cc1cnc(CNC(=O)c2c(=O)c3ccc(N4CCCN(C)CC4)nc3n3c2sc2ccccc23)cn1 in terms of viability, T/C is 8.17

The reported value for C#Cc1c(F)ccc2cc(O)cc(-c3ncc4c(N5CC6CCC(C5)N6)nc(OCC56CCCN5CC(F)C6)nc4c3F)c12 (stereo not given) + Cc1cnc(CNC(=O)c2c(=O)c3ccc(N4CCCN(C)CC4)nc3n3c2sc2ccccc23)cn1 in terms of viability, T/C is 7.05

The reported value for CC1COCCN1c1cc(-c2ccnn2C)c2ccnc(-c3ccn[nH]3)c2n1 (stereo not given) + CN(C)c1ccc(Nc2c3ccc(NC(=O)CCN4CCCC4)cc3nc3cc(NC(=O)CCN4CCCC4)ccc23)cc1 in terms of viability, T/C is 4.36

The reported value for C=CCn1c(=O)c2cnc(Nc3ccc(N4CCN(C)CC4)cc3)nc2n1-c1cccc(C(C)(C)O)n1 + Cc1cnc(CNC(=O)c2c(=O)c3ccc(N4CCCN(C)CC4)nc3n3c2sc2ccccc23)cn1 in terms of viability, T/C is 1.81

The reported value for C=CCn1c(=O)c2cnc(Nc3ccc(N4CCN(C)CC4)cc3)nc2n1-c1cccc(C(C)(C)O)n1 + CN(C)c1ccc(Nc2c3ccc(NC(=O)CCN4CCCC4)cc3nc3cc(NC(=O)CCN4CCCC4)ccc23)cc1 in terms of viability, T/C is 1.93

The reported value for COc1cc(C2c3cc4c(cc3C(OC3OC5COC(C)OC5C(O)C3O)C3COC(=O)C23)OCO4)cc(OC)c1O (stereo not given) + Cc1[nH]c2ccc(F)cc2c1-c1nc2c3cccnc3c3ncccc3c2[nH]1 in terms of viability, T/C is 0.55
